# target: d(G4C2)8
# protocolNotes: Biolayer interferometry (BLI) binding
# experimentalContext: BLI; read-out: Kd, 2
pKd for assorted molecules
Schema: pKd number; meaning minus log10 of the concentration expressed in molar units.

molecule	target	quantitativeReadout
Cc1c2ccncc2c(C)c2c1[nH]c1ccc(OCCOCCOCCOCCOCCOCCOc3ccc4[nH]c5c(C)c6ccncc6c(C)c5c4c3)cc12 [Compound 2]	d(G4C2)8	4.42

Let us move to another entry and its pKd.
Challenge: I would be grateful if you could share the reported pKd for Cc1c2ccncc2c(C)c2c1[nH]c1ccc(OCCOCCOCCNCCOCCOCCOc3ccc4[nH]c5c(C)c6ccncc6c(C)c5c4c3)cc12 [Compound 3] .
Response given: 5.44

---

# target: r(G4C2)8
# protocolNotes: Biolayer interferometry (BLI) binding
# experimentalContext: BLI; exponent printed in row below; read-out: Kd, 1
metric: pKd
// returns pKd (minus log10 of molar concentration), number only

Challenge: Record CC(=O)N(CCOCCOCCOc1ccc2[nH]c3c(C)c4ccncc4c(C)c3c2c1)CCOCCOCCOc1ccc2[nH]c3c(C)c4ccncc4c(C)c3c2c1 [Compound 6] : what is its pKd with r(G4C2)8?
Response given: 6.70

---

# target: r(G4C2)8
# protocolNotes: Biolayer interferometry (BLI) binding
# experimentalContext: BLI, r(G4C2) repeats; read-out: Kd
metric: pKd
Give only the number. pKd is defined as minus log10 of concentration in molar units.

Challenge: Quick one: pKd for C#CCn1c2ccc(OC)cc2c2c(C)c3cnccc3c(C)c21 ?
Response given: 4.96
